Every entry's value here was drawn from patent US11179501B2.

Exercise: for every item that follows, state its recorded Fold increase in BMP-Potentiated ALP activity over BMP control.
test system: C2C12 cells; test: Alkaline phosphatase (ALP) assay: potentiation of BMP-2-induced ALP activity; conditions: C2C12 cells, 50 ng/ml BMP-2, 72 hours; fold over BMP control
Output: the number by itself.

Lookup: Using the record for CC1=C(/C=C/C(C)=C/C=C/C(C)=C/C(=O)O)C(C)(C)CCC1 [Retinoic acid] , report its Fold increase in BMP-Potentiated ALP activity over BMP control.
Found: 11

Lookup: Same lookup for O=C(O)CCCc1ccc(N(CCCl)CCCl)cc1 [Chlorambucil, chlorambucil] , please.
Found: 3

Lookup: Thanks! And C=CCC1C=C(C)CC(C)CC(OC)C2OC(O)(C(=O)C(=O)N3CCCCC3C(=O)OC(/C(C)=C/C3CCC(O)C(OC)C3)C(C)C(O)CC1=O)C(C)CC2OC (centres unmarked) [Tacrolimus] ?
Found: 7

Lookup: Again, but for COc1cc(C)c(/C=C/C(C)=C/C=C/C(C)=C/C(=O)O)c(C)c1C [Acitretin, acitretin]
Found: 33

Lookup: Same thing, different molecule: CCCc1nc2c(C)cc(-c3nc4ccccc4n3C)cc2n1Cc1ccc(-c2ccccc2C(=O)O)cc1 [Telmisartan]
Found: 3

Lookup: Now consider CC(=O)S[C@@H]1CC2=CC(=O)CC[C@]2(C)[C@H]2CC[C@@]3(C)[C@@H](CC[C@@]34CCC(=O)O4)[C@H]12 [Spironolactone, spironolactone] and answer again.
Found: 3

Lookup: And what about the molecule C=CCc1ccc(O)c(-c2ccc(O)c(CC=C)c2)c1 [Honokiol] ?
Found: 5

Lookup: Also, CCC(=O)O[C@]1(C(=O)SCF)[C@H](C)C[C@H]2[C@@H]3C[C@H](F)C4=CC(=O)C=C[C@]4(C)[C@@]3(F)[C@@H](O)C[C@@]21C [Fluticasone Propionate] please.
Found: 6

Lookup: Next entry: CC1=C(/C=C/C(C)=C/C=C/C(C)=C\C(=O)O)C(C)(C)CCC1 [Isotretinoin, isotretinoin]
Found: 30

Lookup: Moving on to CC(=O)NC[C@H]1CN(c2ccc(N3CCOCC3)c(F)c2)C(=O)O1 [Linezolid]
Found: 5

Lookup: And then Clc1ccccc1C(c1ccccc1)(c1ccccc1)n1ccnc1 [Clotrimazole] , what is it?
Found: 7
